Reference source for all entries: PubChem BioAssay (NCI)

# Tested on: MOLT-4 leukemia
# Experiment: NCI tumour cell line growth inhibition, 48 h; in the data active = GI50 below about 0.43 µM; inactive = the rest
Pick one: 1 (active), 0 (inactive)

Answered cases to consult:
Compound	Label Class
CC(C)=CC[C@@H]1CC2(CC=C(C)C)C(=O)C(OC3(C(=O)c4ccccc4)C(=O)C4(CC=C(C)C)C[C@@H](CC=C(C)C)C(C)(C)C(CC=C(C)C)(C4=O)C3=O)(C(=O)c3ccccc3)C(=O)C(CC=C(C)C)(C2=O)C1(C)C (some centres undefined)	0
COc1ccc(-c2csc3c2-n2cccc2C3=O)cc1	1
COc1cccc2c1nc(C(F)F)n2-c1nc(-c2ccc(NS(=O)(=O)CCN(C)C)cc2)nc(N2CCOCC2)n1	1
COc1cc(/C=C/C(=O)c2cccc(-n3cc(-c4ccccc4)[nH]c3=O)c2)cc(OC)c1OC	0
COc1cc2cc(NCc3cccc(Cl)c3)nc(C)c2cc1OC	0

Attention now turns to another entry.
Asked: Look up the recorded call for `Cn1cc(C2=C(c3ccsc3)C(=O)NC2=O)c2ccccc21` in this test.
Given back: 0
